Target: T1, GIP receptor (UniProt P48546 22-466)
T1 sequence (looked up): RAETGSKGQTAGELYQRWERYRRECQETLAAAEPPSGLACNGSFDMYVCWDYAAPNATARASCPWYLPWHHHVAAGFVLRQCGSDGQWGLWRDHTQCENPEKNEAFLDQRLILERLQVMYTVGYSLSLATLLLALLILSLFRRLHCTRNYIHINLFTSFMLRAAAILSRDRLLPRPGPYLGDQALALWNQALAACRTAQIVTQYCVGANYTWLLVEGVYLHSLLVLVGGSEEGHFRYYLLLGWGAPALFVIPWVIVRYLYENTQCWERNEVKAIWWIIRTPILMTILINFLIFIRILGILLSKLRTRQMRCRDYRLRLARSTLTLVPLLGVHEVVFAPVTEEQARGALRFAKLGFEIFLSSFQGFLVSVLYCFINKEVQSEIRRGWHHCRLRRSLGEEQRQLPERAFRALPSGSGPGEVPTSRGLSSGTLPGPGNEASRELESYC
Assay: cell-based or functional assay
*1 amine or outer side, *2 acyl side, *3 side chain or, on linkers, in order; H or OH if unused. Bridges are numbered along the chain shown (N, C = ends). Where no end group is shown, it is not given here. Side-chain parts run from the residue outwards. [ ]: non-standard residue; d: D form. The star is where a group is joined. Cys(PEG 40 kDa) = Cys with a 40 kDa PEG covalently attached to its side chain (alpha amino acetyl-capped, Ac); γGlu = O=C(O)[C@H](CCC(=O)[*:2])N[*:1]; Palmitoyl = CCCCCCCCCCCCCCCC(=O)*; Aib = CC(C)(N)C(=O)O
endpoint label: EC50, nM; GIP Receptor (nM)

# binder, units symbol, reported result
records = [
    ("Y[Aib]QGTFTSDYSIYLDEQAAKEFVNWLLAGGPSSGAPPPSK([Ala-Cys(PEG 40 kDa)-Ac])-NH2 (lactam 16-20) [mt-225]", "nM", 1.9),
    ("Y[Aib]EGTFTSDYSIYLDKQAA[Aib]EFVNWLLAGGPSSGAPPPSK([γGlu-γGlu-Palmitoyl])-NH2 [mt-367]", "nM", 0.0014),
    ("YXEGTFTSDYSIYLDKQAAXEFVNWLLAGGPSSGAPPPSKC (C-terminal amide; acylation at position 40 of each monomer, no spacer; monomers linked via a PEG at C-terminal Cys residues) [mt-376]", "nM", 0.0068),
]
